Test system: pre-formed P. aeruginosa PAO1 biofilms
Assay: Static bacterial biofilm dispersion assay, PAO1
Format: cell-based
Conditions: Pseudomonas aeruginosa
pEC50: −log10 of the molar value. Counter-ions that a name gives are not always drawn.

[
  {
    "COMPOUND": "C/C(=C\\c1ccccc1)Cn1cc(CCCCCCc2c[nH]c(N)n2)nn1 [Compound 12, hydrochloride]",
    "pEC50": 4.29
  },
  {
    "COMPOUND": "C/C(=C\\c1ccccc1)Cn1cc(CCCCc2cnc(N)[nH]2)nn1",
    "pEC50": 4.09
  },
  {
    "COMPOUND": "C/C(=C\\c1ccccc1)Cn1cc(CCCCCc2c[nH]c(N)n2)nn1 [Compound 11, hydrochloride]",
    "pEC50": 4.96
  }
]

====

Tested on: pre-formed A. baumannii biofilms
Assay: Static bacterial biofilm dispersion assay, A. baumannii
Format: cell-based
Conditions: Acinetobacter baumannii
pEC50: −log10 of the molar value. Structures can show the parent of a compound that is named as a salt.
MEASURED ENDPOINT: pEC50

[
  {
    "COMPOUND": "C/C(=C\\c1ccccc1)Cn1cc(CCCCCc2c[nH]c(N)n2)nn1 [Compound 11, hydrochloride]",
    "REPORTED": 3.92
  },
  {
    "COMPOUND": "C/C(=C\\c1ccccc1)Cn1cc(CCCCCCc2c[nH]c(N)n2)nn1 [Compound 12, hydrochloride]",
    "REPORTED": 4.44
  },
  {
    "COMPOUND": "C/C(=C\\c1ccccc1)Cn1cc(CCCCc2cnc(N)[nH]2)nn1",
    "REPORTED": 3.68
  },
  {
    "COMPOUND": "C/C(=C\\c1ccccc1)Cn1cc(CCCc2c[nH]c(N)n2)nn1 [Compound 6, hydrochloride]",
    "REPORTED": 3.40
  }
]

====

Test system: Staphylococcus aureus biofilm
Assay: Static bacterial biofilm inhibition assay (crystal violet), S. aureus
Type: cell-based
pIC50: −log10 of the molar value. Where a name gives a salt, the structure may show the parent alone.
The entries below come with measured pIC50 values attached.

[
  {
    "COMPOUND": "C/C(=C\\c1ccccc1)Cn1cc(CCCCc2cnc(N)[nH]2)nn1 [Compound 10]",
    "pIC50": 5.15
  },
  {
    "COMPOUND": "C/C(=C\\c1ccccc1)Cn1cc(CCCCCCc2c[nH]c(N)n2)nn1 [Compound 12, hydrochloride]",
    "pIC50": 5.34
  }
]
